Test: yeast display, Sf9 membrane polyspecificity reagent, FACS + sequencing; frameworks hold sequencing errors

[
  {
    "Residue sequence": "QVQLVESGGGLVQAGGILRLSCAASGLTFNYYDMGWYRQAPGKERELVAAISRSGTNTSYADSVKGRFTISRDNAKNTVYLQMNSLKPEDTAVYYCNSAGVYLAAGPYTANFNYNYWGQGTQVTVSS",
    "polyreactivity (PSR sort gate)": "low polyreactivity"
  },
  {
    "Residue sequence": "QVQLVESGGGLVQAGGSLRLICAASGRTFGVNAMGWYRQAPGKERELVASIRWNGGSTYYADSVKGRFTISRDNAKNTVYLQMNSLKPEDTAVYYCNAVRRYRSREFDYWGQGTQVTVSS",
    "polyreactivity (PSR sort gate)": "low polyreactivity"
  }
]

###

Experiment: yeast display, Sf9 membrane polyspecificity reagent, FACS + sequencing; frameworks hold sequencing errors
Reported endpoint: polyreactivity (PSR sort gate)

[
  {
    "Residue sequence": "QVQLVESGGGLVQAGGSLRLSCAASGSIFYGNTMGWYRQAPGKERELVAAIDYRGDSTYYADSVKGRFTISRDNAKNTVYLQMNSLKPEDTAVYYCAADQTPFGQVYYGTLSIRDYWGQGTQVTVSS",
    "Measured": "low polyreactivity"
  },
  {
    "Residue sequence": "QVQLVESGGGLVQAGGSLRLSCAASGRTFRRNAMAWYRKAPGKERELVAAISGGGSTNYADSVKGRFTISRDNAKNTVYLQMNSLKPEDTAVYYCNKRGTIWSGFWGQGTQVTVSS",
    "Measured": "high polyreactivity"
  },
  {
    "Residue sequence": "QVQLVESGGGLVQAGGSLRLSCAASGRILVRNAMGWYRQAPGKERELVAAIRRGTSTNYADSVKGRFTISRDNAKNTVYLQMNSLKPEDTAVYYCAVRAASPYLDGAWRRRYDYWGQGTQVTVSS",
    "Measured": "low polyreactivity"
  },
  {
    "Residue sequence": "QVQLVESGGGLVQAGGSLRLSCAASGRIFRYYAMGWYRQAPGKERELVAAISSSGGSTYYADSVKGRFTISRDNAKNTVDLQMNSLKPEDTAVYYCAAKYSRRSSVSYYYWGQGTQVTVSS",
    "Measured": "high polyreactivity"
  },
  {
    "Residue sequence": "QVQLVESGGGLVQAGGSLRLSCAASGLIFRHYAMGWYRQAPGKERELVAVISSGAGTYYADSVKGRFTISRDNAKNTVYLQMISMKPEDTAVYYSARDLYYRYRYFITGLYDSWGQGTQVTVSS",
    "Measured": "low polyreactivity"
  },
  {
    "Residue sequence": "QVQLVESGGGLVQAGGSLRLSCAASGLTFFRYARGWYRQAPGKERELVATITGRGGSTYYADSVKGRFTISRDNAKNTVYLQMNSLKPEDTAVYYCAAYYSRFRYLHRDYWGQGTQVTVSS",
    "Measured": "high polyreactivity"
  },
  {
    "Residue sequence": "QVQLVESGGGLVQAGGSLRLSCAASGLTFVTYVMGWYRQAPGKERELVAAISYSGGSTYYADSVKGRFTISRDNAKNTVYLQMISLKPEDTAVYYCAAEWYGYQEDDYWGQGTQVTVSS",
    "Measured": "low polyreactivity"
  },
  {
    "Residue sequence": "QVQLVESGGGLVQAGGSLRLSCAASGRIFWVYVMGWYRQAPGKERELVADITSIGGSTYYADSVKGRFTISRDNAKNTVDLQMNSLKPEDTAVYYCAAARRPTYCPVYPYFGYEYWGQGTQVTVSS",
    "Measured": "low polyreactivity"
  },
  {
    "Residue sequence": "QDQLVESGVGLVQAGGILRLSCAASVSTFNRYAMVWYRQAPGKERELVAAISSSGGYTYYADSVKGRFTNSRDNAKNTVYFQMNSLKAEDTAVYYCNAAYRVRRFDYWGQGTQVTVSS",
    "Measured": "low polyreactivity"
  },
  {
    "Residue sequence": "QVQLVESGGGLVQAGGSLRLICAASGFTFPPYAMGGYRQAPGKERELVAAITSSGGRTYYAYSVKGRFTISRDNAKNTVYLQMNSLKPEDTAFYYCAAYGRFARMNYWGQGTQVTVSS",
    "Measured": "high polyreactivity"
  }
]

Source: the nanobody polyreactivity screen of Harvey et al. (2022)
